- Assay System: Smoothened (Mus musculus) (UniProt P56726)
- Sequence (P56726 whole entry, looked up): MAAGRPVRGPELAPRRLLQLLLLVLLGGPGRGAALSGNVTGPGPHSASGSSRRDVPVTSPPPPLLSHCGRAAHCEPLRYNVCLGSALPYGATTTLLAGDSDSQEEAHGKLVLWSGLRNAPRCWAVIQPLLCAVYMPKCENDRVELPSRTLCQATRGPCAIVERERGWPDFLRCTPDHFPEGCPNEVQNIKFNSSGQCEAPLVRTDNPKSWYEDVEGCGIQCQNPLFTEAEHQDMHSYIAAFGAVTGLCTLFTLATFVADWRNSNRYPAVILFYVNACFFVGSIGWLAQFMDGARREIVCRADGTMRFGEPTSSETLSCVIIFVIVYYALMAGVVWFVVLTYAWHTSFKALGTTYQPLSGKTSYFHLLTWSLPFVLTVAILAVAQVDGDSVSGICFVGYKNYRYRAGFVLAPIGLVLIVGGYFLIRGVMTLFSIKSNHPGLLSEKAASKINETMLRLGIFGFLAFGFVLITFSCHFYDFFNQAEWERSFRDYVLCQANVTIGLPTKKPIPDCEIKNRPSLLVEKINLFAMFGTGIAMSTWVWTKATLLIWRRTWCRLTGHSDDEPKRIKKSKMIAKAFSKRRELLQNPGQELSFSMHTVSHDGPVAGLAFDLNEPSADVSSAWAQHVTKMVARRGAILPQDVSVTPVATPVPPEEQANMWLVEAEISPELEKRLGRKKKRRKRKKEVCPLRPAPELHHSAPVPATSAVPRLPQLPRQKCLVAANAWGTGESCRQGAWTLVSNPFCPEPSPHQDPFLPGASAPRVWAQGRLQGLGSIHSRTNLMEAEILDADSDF
- Method Notes: Inhibition of Smo-mediated Hh signaling in mouse Shh-light2 cells at 0.3 uM by luciferase reporter gene assay
- Run Conditions: Shh Light II
Output 1 for inhibition not less than 80%; output 0 otherwise.

Smiles Representation: COc1cc(C(=O)NC(=S)Nc2ccc(C)c(C(=O)Nc3ccccc3)c2)cc(OC)c1OC
Assay System: Smoothened (Mus musculus) (UniProt P56726)
Category: 0

Smiles Representation: COc1cc(C(=O)NC(=O)Nc2cccc(NC(=O)c3cc4ccccc4[nH]3)c2)cc(OC)c1OC
Assay System: Smoothened (Mus musculus) (UniProt P56726)
Category: 1

Smiles Representation: COc1cc(C(=O)NC(=O)Nc2ccc(Cl)c(NC(=O)c3ccc(-c4ccccc4)cc3)c2)cc(OC)c1OC
Assay System: Smoothened (Mus musculus) (UniProt P56726)
Category: 1

Smiles Representation: COc1cc(C(=O)NC(=S)Nc2ccc(Cl)c(C(=O)Nc3ccccc3)c2)cc(OC)c1OC
Assay System: Smoothened (Mus musculus) (UniProt P56726)
Category: 0

Smiles Representation: COc1cc(C(=O)NC(=O)Nc2cccc(NC(=O)c3ccc(Cl)cc3)c2)cc(OC)c1OC
Assay System: Smoothened (Mus musculus) (UniProt P56726)
Category: 0

Smiles Representation: COc1cc(C(=O)NC(=S)Nc2ccc(Cl)c(NC(=O)c3ccc(-c4ccccc4)cc3)c2)cc(OC)c1OC
Assay System: Smoothened (Mus musculus) (UniProt P56726)
Category: 1

Smiles Representation: COc1ccc(C(=O)Nc2cccc(NC(=O)NC(=O)c3cc(OC)c(OC)c(OC)c3)c2)cc1
Assay System: Smoothened (Mus musculus) (UniProt P56726)
Category: 0

Smiles Representation: COc1cc(C(=O)NC(=S)Nc2ccc(Cl)c(NC(=O)c3ccccc3)c2)cc(OC)c1OC
Assay System: Smoothened (Mus musculus) (UniProt P56726)
Category: 0

Smiles Representation: COc1cc(C(=O)NC(=S)Nc2ccc(Cl)c(C(=O)Nc3ccc(N(C)C)cc3)c2)cc(OC)c1OC
Assay System: Smoothened (Mus musculus) (UniProt P56726)
Category: 0

Data credit: ChEMBL document CHEMBL2029339
